- assayTarget: (recombinant) catalytic domain of human Bub1 (amino acids 704-1085) (Homo sapiens (Human), UniProt O43683)
- Sequence (O43683 704-1085): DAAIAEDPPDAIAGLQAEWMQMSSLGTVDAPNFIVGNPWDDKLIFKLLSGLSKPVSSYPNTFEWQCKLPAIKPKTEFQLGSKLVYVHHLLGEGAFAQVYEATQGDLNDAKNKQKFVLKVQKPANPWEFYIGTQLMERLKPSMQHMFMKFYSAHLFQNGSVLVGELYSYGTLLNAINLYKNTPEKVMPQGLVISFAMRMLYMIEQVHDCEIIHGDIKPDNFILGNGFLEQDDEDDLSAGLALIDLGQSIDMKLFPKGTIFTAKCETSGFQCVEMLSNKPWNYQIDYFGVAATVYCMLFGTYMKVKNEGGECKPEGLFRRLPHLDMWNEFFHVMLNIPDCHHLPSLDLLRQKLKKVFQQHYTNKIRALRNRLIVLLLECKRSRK
- measurementDescription: Bub1 kinase assay (TR-FRET)
- conditionParameters: ATP 10 μM final, peptide substrate 1 μM final, 60 min at 22° C., read-out: Biological Assay: Bub1 kinase assay median IC50
Kindly supply the reported IC50 values for the records listed here.
Provide only the numeric value, understood in nM.

(Q) Item COc1cc(Nc2c(-c3ccncc3)[nH]c3c2C(=O)CC(C)(C)C3)ccc1F [Example 110] has what recorded IC50?
(A) 235

(Q) Item CNc1cc(-c2[nH]c3c(c2Nc2ccccc2)C(=O)CC(C)(C)C3)ccn1 [Example 145] has what recorded IC50?
(A) 148

(Q) Item CC1(C)CC(=O)c2c([nH]c(-c3ccnc(NC(=O)c4nccs4)c3)c2Nc2ccccc2)C1 [Example 505] has what recorded IC50?
(A) 11.1

(Q) Item CC(C)(C)NC(=O)Nc1cc(-c2[nH]c3c(c2Nc2ccccc2)C(=O)CCC3)ccn1 [Example 380] has what recorded IC50?
(A) 437

(Q) Item CC(=O)Nc1cc(-c2[nH]c3c(c2Nc2ccc(F)cc2)C(=O)CC(C(C)C)C3)ccn1 (centres unmarked) [Example 321] has what recorded IC50?
(A) 11.2

(Q) Item Cc1cnccc1-c1[nH]c2c(c1Nc1ccccc1)C(=O)CC(C)(C)C2 [Example 131] has what recorded IC50?
(A) 51.8

(Q) Item CC1(C)CC(=O)c2c([nH]c(-c3ccncc3)c2Nc2cccc(-c3ccsc3)c2)C1 [Example 418] has what recorded IC50?
(A) 26.6

(Q) Item CC(C)C1CC(=O)c2c([nH]c(-c3ccnc(NC(=O)C4CC4)c3)c2Nc2ccc(F)cc2)C1 (centres unmarked) [Example 322] has what recorded IC50?
(A) 12.7

----------
- assayTarget: (recombinant) catalytic domain of human Bub1 (amino acids 704-1085) (Homo sapiens (Human))
- measurementDescription: Bub1 kinase assay (TR-FRET)
- conditionParameters: ATP 10 μM final, peptide substrate 1 μM final, 60 min at 22° C., read-out: Biological Assay: Bub1 kinase assay median IC50
pIC50: −log10 of the molar value.
# if value of pIC50 reaches 7, tag Fulfilled; if it stays below, tag Not fulfilled

(Q) Threshold query (pIC50 >= 7) on CC1(C)OC[C@@H](C(=O)Nc2cc(-c3[nH]c4c(c3Nc3ccccc3)C(=O)CCC4)ccn2)O1
(A) Fulfilled

(Q) Threshold query (pIC50 >= 7) on CC1(C)CC(=O)c2c([nH]c(-c3ccncc3)c2Nc2ccc(Br)cc2)C1
(A) Fulfilled

(Q) Threshold query (pIC50 >= 7) on CC1(C)CC(=O)c2c([nH]c(-c3ccncc3)c2Nc2cccc(C3(C)OCCO3)c2)C1
(A) Not fulfilled

(Q) Threshold query (pIC50 >= 7) on CC(C)C(=O)Nc1cc(-c2[nH]c3c(c2Nc2ccccc2)C(=O)CC(C)(C)C3)ccn1
(A) Fulfilled

(Q) Threshold query (pIC50 >= 7) on Cc1ccc(Cl)cc1Nc1c(-c2ccncc2)[nH]c2c1C(=O)CC(C)(C)C2
(A) Not fulfilled

(Q) Threshold query (pIC50 >= 7) on O=C(Nc1cc(-c2[nH]c3c(c2Nc2ccccc2)C(=O)CCC3)ccn1)c1cc(F)cc(F)c1
(A) Fulfilled

(Q) Threshold query (pIC50 >= 7) on CC1(C)CC(=O)c2c(Nc3ccccc3)c(-c3ccncc3)n(CCO)c2C1
(A) Not fulfilled

(Q) Threshold query (pIC50 >= 7) on CC(C)COCC(=O)Nc1cc(-c2[nH]c3c(c2Nc2ccccc2)C(=O)CCC3)ccn1
(A) Fulfilled

(Q) Threshold query (pIC50 >= 7) on O=C(COc1ccsc1)Nc1cc(-c2[nH]c3c(c2Nc2ccccc2)C(=O)CCC3)ccn1
(A) Fulfilled

(Q) Threshold query (pIC50 >= 7) on CC(C)Oc1cnccc1-c1[nH]c2c(c1Nc1ccccc1)C(=O)CC(C)(C)C2
(A) Fulfilled

(Q) Threshold query (pIC50 >= 7) on CC1(C)CC(=O)c2c([nH]c(-c3ccncc3)c2Nc2ccc3nc[nH]c3c2)C1
(A) Not fulfilled

(Q) Threshold query (pIC50 >= 7) on CC(C)c1ccc(Nc2c(-c3ccncc3)[nH]c3c2C(=O)CC(C)(C)C3)cc1
(A) Not fulfilled

(Q) Threshold query (pIC50 >= 7) on CC1(C)CC(=O)c2c([nH]c(-c3ccnc(O)c3)c2Nc2ccccc2)C1
(A) Not fulfilled

(Q) Threshold query (pIC50 >= 7) on CC1(C)CC(=O)c2c([nH]c(-c3ccncc3)c2Nc2ccccc2Br)C1
(A) Fulfilled

(Q) Threshold query (pIC50 >= 7) on CCNC(=O)Nc1cc(-c2[nH]c3c(c2Nc2ccccc2)C(=O)CCC3)ccn1
(A) Fulfilled

(Q) Threshold query (pIC50 >= 7) on CC1(C)CC(=O)c2c([nH]c(-c3ccncc3)c2Nc2cc(Cl)cc(Cl)c2)C1
(A) Not fulfilled

(Q) Threshold query (pIC50 >= 7) on O=C(Cc1ccsc1)Nc1cc(-c2[nH]c3c(c2Nc2ccccc2)C(=O)CCC3)ccn1
(A) Fulfilled

(Q) Threshold query (pIC50 >= 7) on CC1(C)CC(=O)c2c([nH]c(-c3ccncc3)c2Nc2ccc(Oc3ccccc3)cc2)C1
(A) Not fulfilled

(Q) Threshold query (pIC50 >= 7) on CC1(C)CC(=O)c2c([nH]c(-c3ccncc3)c2Nc2ccc3ccsc3c2)C1
(A) Fulfilled

(Q) Threshold query (pIC50 >= 7) on O=C1CCCc2[nH]c(-c3ccncc3)c(Nc3cccc(F)c3)c21
(A) Fulfilled

(Q) Threshold query (pIC50 >= 7) on CC1(C)CC(=O)c2c([nH]c(-c3ccncc3)c2Nc2cc(F)c(F)c(F)c2)C1
(A) Fulfilled

(Q) Threshold query (pIC50 >= 7) on CCOc1cccc(Nc2c(-c3ccncc3)[nH]c3c2C(=O)CC(C)(C)C3)c1
(A) Not fulfilled

(Q) Threshold query (pIC50 >= 7) on CC(C)C1CC(=O)c2c([nH]c(-c3ccnc(NC(=O)C4CC4)c3)c2Nc2ccc(F)c(F)c2)C1 (stereo not drawn)
(A) Fulfilled

(Q) Threshold query (pIC50 >= 7) on CC1(C)CC(=O)c2c([nH]c(-c3ccnc(NC(=O)c4cncs4)c3)c2Nc2ccccc2)C1
(A) Fulfilled

(Q) Threshold query (pIC50 >= 7) on CC1(C)CC(=O)c2c(Nc3ccccc3)c(-c3ccncc3)n(Cc3ccccc3)c2C1
(A) Not fulfilled

(Q) Threshold query (pIC50 >= 7) on CC(=O)Nc1cc(-c2[nH]c3c(c2Nc2ccc(F)c(F)c2)C(=O)CC(C(C)C)C3)ccn1 (stereo not drawn)
(A) Fulfilled

(Q) Threshold query (pIC50 >= 7) on Cc1cc(-c2[nH]c3c(c2Nc2ccccc2)C(=O)CC(C)(C)C3)cc(C)n1
(A) Not fulfilled

(Q) Threshold query (pIC50 >= 7) on O=C1CCCc2[nH]c(-c3ccnc(NC[C@H](O)CO)c3)c(Nc3ccccc3)c21
(A) Not fulfilled

(Q) Threshold query (pIC50 >= 7) on Cn1cc(C(=O)Nc2cc(-c3[nH]c4c(c3Nc3ccccc3)C(=O)CC(C)(C)C4)ccn2)cn1
(A) Fulfilled

(Q) Threshold query (pIC50 >= 7) on CC1CC(=O)c2c([nH]c(-c3ccncc3)c2Nc2ccccc2)C1 (stereo not drawn)
(A) Fulfilled

(Q) Threshold query (pIC50 >= 7) on CC1(C)CC(=O)c2c([nH]c(-c3ccncc3)c2Nc2cccc(C(=O)OC(C)(C)C)c2)C1
(A) Not fulfilled

----------
- assayTarget: (recombinant) catalytic domain of human Bub1 (amino acids 704-1085) (Homo sapiens (Human), UniProt O43683)
- measurementDescription: Bub1 kinase assay (TR-FRET)
- conditionParameters: ATP 10 μM final, peptide substrate 1 μM final, 60 min at 22° C., read-out: Biological Assay: Bub1 kinase assay median IC50
measuredMetric: log10 IC50 (log10 of the value in nM)
Scale type: logarithmic (base 10). Underlying IC50 unit: nM.

(Q) Item Cn1ccnc1CC(=O)Nc1cc(-c2[nH]c3c(c2Nc2ccccc2)C(=O)CCC3)ccn1 has what recorded log10 IC50?
(A) 2.15

(Q) Item O=C1CC(C(F)(F)F)Cc2[nH]c(-c3ccncc3)c(Nc3ccccc3)c21 (centres unmarked) [Example 20] has what recorded log10 IC50?
(A) 0.97

(Q) Item CS(=O)(=O)CC(=O)Nc1cc(-c2[nH]c3c(c2Nc2ccccc2)C(=O)CCC3)ccn1 has what recorded log10 IC50?
(A) 1.45

(Q) Item CC1(C)CC(=O)c2c([nH]c(-c3cc(Cl)ncc3F)c2Nc2ccccc2)C1 has what recorded log10 IC50?
(A) 3.15

(Q) Item O=C(Nc1cc(-c2[nH]c3c(c2Nc2ccccc2)C(=O)CCC3)ccn1)c1ccsn1 has what recorded log10 IC50?
(A) 1.26

(Q) Item CCc1cccc(Nc2c(-c3ccncc3)[nH]c3c2C(=O)CC(C)(C)C3)c1 has what recorded log10 IC50?
(A) 1.37

(Q) Item CC(=O)Nc1cc(-c2[nH]c3c(c2Nc2ccccc2)C(=O)CC(CCl)C3)ccn1 (centres unmarked) has what recorded log10 IC50?
(A) 0.66

(Q) Item O=C(Cc1ccccc1)Nc1cc(-c2[nH]c3c(c2Nc2ccccc2)C(=O)CCC3)ccn1 has what recorded log10 IC50?
(A) 1.64

(Q) Item O=C(COc1ccccn1)Nc1cc(-c2[nH]c3c(c2Nc2ccccc2)C(=O)CCC3)ccn1 has what recorded log10 IC50?
(A) 2.00

(Q) Item O=C1CCCc2[nH]c(-c3ccncc3Cl)c(Nc3ccc(F)cc3)c21 has what recorded log10 IC50?
(A) 1.84

(Q) Item CC1(C)CC(=O)c2c([nH]c(-c3ccncc3)c2Nc2cccc(C#N)c2)C1 has what recorded log10 IC50?
(A) 2.12

(Q) Item CC1(C)CC(=O)c2c([nH]c(-c3ccncc3)c2Nc2cnccc2CO)C1 has what recorded log10 IC50?
(A) 1.40

(Q) Item CCOC(C)(C)C(=O)Nc1cc(-c2[nH]c3c(c2Nc2ccccc2)C(=O)CCC3)ccn1 has what recorded log10 IC50?
(A) 2.72

(Q) Item CC(C)C1CC(=O)c2c([nH]c(-c3ccnc(N)c3)c2Nc2ccccc2)C1 (centres unmarked) has what recorded log10 IC50?
(A) 1.12

(Q) Item CC1(C)CC(=O)c2c([nH]c(-c3ccnc(NC(=O)c4cnn(C(C)(C)C)c4)c3)c2Nc2ccccc2)C1 has what recorded log10 IC50?
(A) 0.70

(Q) Item CC(C)c1ccccc1Nc1c(-c2ccncc2)[nH]c2c1C(=O)CC(C)(C)C2 has what recorded log10 IC50?
(A) 3.42

(Q) Item Cc1cccc(Nc2c(-c3ccncc3)[nH]c3c2C(=O)CC(C)(C)C3)c1 has what recorded log10 IC50?
(A) 1.58
